# experiment: in vivo
# conditions: male, Wistar, rat, plasma, po, 15 mg/kg/rat, AUC0−∞ (Figure 6), Wistar rats; mean ± SEM
measurement_kind: AUC(0-inf)
Just the number plus its unit, please.

The molecule "Nc1nc(=O)n([C@@H]2CS[C@H](CO)O2)cc1F" showed AUC(0-inf) equal to 14800 ng·h/mL
